assay: Detection of PK in rats; format: in vivo; conditions: rat, po, p.o. (gavage), 1 mg/Kg, plasma
experimental.readout: half-life (min)

compound	experimental.readout	u	val
Cc1c(C2CCN(S(=O)(=O)c3ccc(F)cc3)CC2)c2cc(F)ccc2n1CC(=O)O [Example 24]	half-life	min	262

(P) Cc1c(C2CCC(NS(=O)(=O)c3ccc(F)cc3)CC2)c2cc(F)ccc2n1CC(=O)O (single isomer, unassigned) [Example 27b]
(Q) Cc1c(C2CCN(S(=O)(=O)c3ccc(F)cc3F)CC2)c2cc(F)ccc2n1CC(=O)O [Example 33]
(R) Cc1c(C2CCC(NC(=O)c3ccc4ccccc4n3)CC2)c2cc(F)ccc2n1CC(=O)O.Cl (single isomer, unassigned) [Example 6a]
Prompt: Let's sort these by half-life, smallest first. Go ahead? Response format: the labels, sorted as the prompt asks.
Completion: P, R, Q

====

assay: Metabolic stability in human liver microsomal; type: in vitro ADME; details: liver microsomes, pH 7.4, 37° C., pH7.4, intrinsic clearance, read-out: Clearance rate
experimental.readout: CLint scaled (mL/min/kg)
State just the number; it will be interpreted in mL/min/kg.

Prompt: // CLint scaled lookup, key: Cc1c(C2CCN(S(=O)(=O)c3ccc(F)cc3)CC2)c2cc(F)ccc2n1CC(=O)O
Completion: 2.55

====

Molecular target: CRTH2 receptor (Homo sapiens, UniProt Q9Y5Y4)
Construct: expressed in transfected cells; host or cells: CHO-K1/G cells
Sequence (Q9Y5Y4 1-395): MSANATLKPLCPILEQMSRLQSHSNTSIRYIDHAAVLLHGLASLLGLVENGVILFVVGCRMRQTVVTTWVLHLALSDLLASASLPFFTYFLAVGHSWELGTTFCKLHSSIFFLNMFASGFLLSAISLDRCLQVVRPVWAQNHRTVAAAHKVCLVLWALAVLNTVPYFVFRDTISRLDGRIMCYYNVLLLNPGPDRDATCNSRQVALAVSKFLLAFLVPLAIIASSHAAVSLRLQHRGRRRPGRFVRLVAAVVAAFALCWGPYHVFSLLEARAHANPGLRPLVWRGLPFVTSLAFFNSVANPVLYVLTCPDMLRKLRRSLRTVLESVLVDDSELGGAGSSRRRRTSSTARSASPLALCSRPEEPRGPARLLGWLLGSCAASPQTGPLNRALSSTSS
Assay: FLIPR detection of inhibitory activity against CRTH2 (CHO-K1/G cells, PGD2 as agonist)
Assay type: cell-based
Settings: CHO-K1/G cells with stable expression of CRTH2 receptor, PGD2 at EC80, FLIPR
Where a name gives a salt, the structure may show the parent alone.
experimental.readout: IC50 (nM)

Consider the reported IC50 for these molecules:
molecule	u	IC50
Cc1c(C2=CCN(Cc3ccc4ccccc4n3)CC2)c2cc(F)ccc2n1CC(=O)O [Example 8, dihydrochloride]	nM	657
Cc1c(C2CCN(S(=O)(=O)c3ccccc3F)CC2)c2cc(F)ccc2n1CC(=O)O	nM	106
Cc1c(C2CCC(NC(=O)c3cccc4ccccc34)CC2)c2cc(F)ccc2n1CC(=O)O (stereo not drawn)	nM	265

(P) Cc1c(C2CCN(S(=O)(=O)c3ccc(O)cc3)CC2)c2cc(F)ccc2n1CC(=O)O
(Q) O=C(O)Cn1cc(C2CCN(S(=O)(=O)c3ccc(F)cc3)CC2)c2ccccc21 [Control compound, reference compound]
Prompt: # compare IC50 for P vs Q ; return the one with the smaller value Write down the label attached to your selection.
Completion: P
(P: 137 nM, Q: 6190 nM)

(P) Cc1c(C2CCN(S(=O)(=O)c3ccc(Cl)cc3)CC2)c2cc(F)ccc2n1CC(=O)O
(Q) Cc1c(C2CCN(S(=O)(=O)c3ccc(F)cc3F)CC2)c2cc(F)ccc2n1CC(=O)O
Prompt: Could you please tell me which of these two has the higher IC50: P or Q ? Write down the label attached to your selection.
Completion: P

(1) Cc1c(C2CCN(S(=O)(=O)c3cccc4ccccc34)CC2)c2cc(F)ccc2n1CC(=O)O
(2) Cc1c(C2CCC(NS(=O)(=O)c3ccc(F)cc3F)CC2)c2cc(F)ccc2n1CC(=O)O (single isomer, unassigned) [Example 29b]
(3) Cc1c(C2CC(NS(=O)(=O)c3ccc(F)cc3)C2)c2cc(F)ccc2n1CC(=O)O (stereo not drawn)
(4) Cc1c(C2CCN(S(=O)(=O)c3ccc(Cl)cc3Cl)CC2)c2cc(F)ccc2n1CC(=O)O
(5) Cc1c(C2=CCCN(C(=O)c3ccc4ccccc4n3)C2)c2cc(F)ccc2n1CC(=O)O [Example 7, hydrochloride]
Prompt: Order the 5 molecules from highest to lowest IC50. Response format: the labels, sorted as the prompt asks.
Completion: 5, 4, 1, 2, 3
(5: 776 nM, 4: 422 nM, 1: 283 nM, 2: 79.5 nM, 3: 33.7 nM)

(I) Cc1c(C2CCC(N(C)C(=O)c3ccc4ccccc4n3)CC2)c2cc(F)ccc2n1CC(=O)O (single isomer, unassigned) [Example 17a, hydrochloride]
(II) Cc1c(C2CCC(NC(=O)c3ccc4ccccc4n3)CC2)c2cc(F)ccc2n1CC(=O)O.Cl (single isomer, unassigned) [Example 6a, hydrochloride]
(III) Cc1c(C2CCN(C(=O)c3ccc4ccccc4n3)CC2)c2cc(F)ccc2n1CC(=O)O [Example 4, hydrochloride]
Prompt: Order the 3 molecules from highest to lowest IC50. Response format: the labels, sorted as the prompt asks.
Completion: I, III, II

====

assay: Detection of PK in Beagle dogs; assay type: in vivo; settings: male, dog, iv, 0.4 mg/Kg, plasma
experimental.readout: Cmax (ng/mL)
State just the number; it will be interpreted in ng/mL.

Prompt: // Cmax lookup, key: Cc1c(C2CCN(S(=O)(=O)c3ccc(F)cc3)CC2)c2cc(F)ccc2n1CC(=O)O
Completion: 3210

====

experiment: Metabolic stability in rat liver microsomal; type: in vitro ADME; conditions: liver microsomes, pH 7.4, 37° C., pH7.4, read-out: Drug half-life
experimental.readout: half-life (h)
State just the number; it will be interpreted in h.

Prompt: // half-life lookup, key: Cc1c(C2CCN(S(=O)(=O)c3ccc(F)cc3)CC2)c2cc(F)ccc2n1CC(=O)O
Completion: 3

====

test: Detection of PK in Beagle dogs; type: in vivo; conditions: male, dog, po, p.o. (gavage), 1 mg/Kg, plasma
experimental.readout: half-life (h)
State just the number; it will be interpreted in h.

Prompt: // half-life lookup, key: Cc1c(C2CCN(S(=O)(=O)c3ccc(F)cc3)CC2)c2cc(F)ccc2n1CC(=O)O [Example 24]
Completion: 10.8

====

test: Detection of PK in rats; format: in vivo; conditions: rat, iv, 0.4 mg/Kg, plasma
experimental.readout: AUC(0-t) (ng·h/mL)

Consider the reported AUC(0-t) for these molecules:
molecule	val
Cc1c(C2CCC(NC(=O)c3ccc4ccccc4n3)CC2)c2cc(F)ccc2n1CC(=O)O.Cl (single isomer, unassigned) [Example 6a]	2680
Cc1c(C2CCN(S(=O)(=O)c3ccc(F)cc3)CC2)c2cc(F)ccc2n1CC(=O)O [Example 24]	991

(a) Cc1c(C2CCN(S(=O)(=O)c3ccc(F)cc3F)CC2)c2cc(F)ccc2n1CC(=O)O [Example 33]
(b) Cc1c(C2CCC(NS(=O)(=O)c3ccc(F)cc3)CC2)c2cc(F)ccc2n1CC(=O)O (single isomer, unassigned) [Example 27b]
Prompt: # compare AUC(0-t) for a vs b ; return the one with the smaller value Write down the label attached to your selection.
Completion: b
(b: 883 ng·h/mL, a: 2440 ng·h/mL)

====

Molecular target: CRTH2 receptor (Homo sapiens, UniProt Q9Y5Y4)
Construct: expressed in transfected cells; host or cells: CHO-K1/G cells
Sequence (Q9Y5Y4 1-395): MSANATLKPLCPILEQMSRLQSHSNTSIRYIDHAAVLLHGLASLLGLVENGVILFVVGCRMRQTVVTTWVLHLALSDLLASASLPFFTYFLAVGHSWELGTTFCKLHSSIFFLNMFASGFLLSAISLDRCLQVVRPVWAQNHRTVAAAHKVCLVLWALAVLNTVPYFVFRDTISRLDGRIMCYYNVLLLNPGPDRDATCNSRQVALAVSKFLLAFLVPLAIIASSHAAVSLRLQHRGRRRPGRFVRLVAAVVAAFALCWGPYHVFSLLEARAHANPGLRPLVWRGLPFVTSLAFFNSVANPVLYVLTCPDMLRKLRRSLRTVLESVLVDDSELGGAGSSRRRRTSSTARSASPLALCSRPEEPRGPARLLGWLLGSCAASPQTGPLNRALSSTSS
Assay: FLIPR detection of inhibitory activity against CRTH2 (CHO-K1/G cells, PGD2 as agonist)
Type: cell-based
Conditions: CHO-K1/G cells with stable expression of CRTH2 receptor, PGD2 at EC80, FLIPR
Counter-ions that a name gives are not always drawn.
experimental.readout: IC50 (nM)

molecule	u	IC50
Cc1c(C2CC(NC(=O)c3ccc4ccccc4n3)C2)c2cc(F)ccc2n1CC(=O)O (stereo not shown) [Example 21, hydrochloride]	nM	185
Cc1c(C2CCN(C(=O)c3cccc4ccccc34)CC2)c2cc(F)ccc2n1CC(=O)O [Example 2]	nM	674
Cc1c(C2CCN(S(=O)(=O)c3ccc(F)cc3)CC2)c2cc(F)ccc2n1CC(=O)O [Example 24]	nM	148

(a) Cc1c(C2CCN(S(=O)(=O)c3ccc(Cl)cc3F)CC2)c2cc(F)ccc2n1CC(=O)O [Example 34]
(b) Cc1c(C2CCC(NC(=O)c3cccc4ncccc34)CC2)c2cc(F)ccc2n1CC(=O)O (single isomer, unassigned) [Example 26b, hydrochloride]
(c) Cc1c(C2CCC(NC(=O)c3ccc4cccnc4n3)CC2)c2cc(F)ccc2n1CC(=O)O (single isomer, unassigned) [Example 20, hydrochloride]
(d) Cc1c(C2CCN(S(=O)(=O)c3ccc(F)cc3Cl)CC2)c2cc(F)ccc2n1CC(=O)O [Example 35]
Prompt: Order the 4 molecules from highest to lowest IC50. Response format: the labels, sorted as the prompt asks.
Completion: d, a, b, c
(d: 333 nM, a: 211 nM, b: 83.9 nM, c: 39.8 nM)

The reported measurements were obtained from patent US9951010B2.
